# Target under test: Human CD3εδ-Fc (human) (UniProt P04234)
# Sequence (chain, as listed by the source mutant, chain 1 of 2): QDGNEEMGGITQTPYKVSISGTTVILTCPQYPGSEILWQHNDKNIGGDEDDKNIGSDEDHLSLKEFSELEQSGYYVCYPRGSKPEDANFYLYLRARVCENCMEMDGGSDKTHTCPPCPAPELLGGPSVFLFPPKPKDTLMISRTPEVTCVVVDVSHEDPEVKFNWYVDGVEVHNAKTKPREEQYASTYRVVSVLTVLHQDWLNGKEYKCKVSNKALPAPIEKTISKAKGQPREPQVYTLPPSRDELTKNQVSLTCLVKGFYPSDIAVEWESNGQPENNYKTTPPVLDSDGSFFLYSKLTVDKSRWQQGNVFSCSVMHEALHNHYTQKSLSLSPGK
# Sequence (P04234 22-105, stated change not applied, chain 2 of 2): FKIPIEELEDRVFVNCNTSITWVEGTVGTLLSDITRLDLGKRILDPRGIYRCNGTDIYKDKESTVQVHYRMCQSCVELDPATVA
# Experiment notes: KD of scFv-Fc or IgG on human CD3εδ-Fc; instrument not given
Recorded metric: pKd
Bear in mind: pKd is minus log10 of a mol/L concentration; give just that figure.

As a guide, the following entries are already answered.
Binder: ADI-46378 (antibody, V domains shown, also called Ab40) VH: QVQLVQSGAEVKKPGASVKVSCKASGFNIKDYYMHWVRQAPGQRLEWIGWIDLENANTVYDAKFQGRVTITRDTSASAAYMELSSLRSEDTAVYYCARDAYGRYFYDVWGQGTLVTVSS VL: DIVMTQSPDSLAVSLGERATINCKSSQSLLNARTRKNYLAWYQQKPGRPPKLLIYWASTRESGVPDRFSGSGSGTDFTLTISSLQAEDVAVYYCVQSYFRRTFGGGTKVEIK
pKd: 9.04
--
Binder: ADI-46381 (antibody, V domains shown, also called Ab43) VH: QVQLVQSGAEVKKPGASVKVSCKASGFNIKDYYMHWVRQAPGQRLEWIGWIDLENANTVYDTKFQGRVTITRDTSASTAYMELSSLRSEDTAVYYCARDAYGRYFYDVWGQGTLVTVSS VL: DIVMTQSPDSLAVSLGERATINCKTSQGLLNARTNKNYLAWYQQKPGQPPKLLIYWASTRESGVPDRFSGSGSGTDFTLTISSLQAEDVAVYYCVQSYFRRTFGGGTKVEIK
pKd: 9.14
--
Binder: ADI-45965 (antibody, V domains shown, also called Ab28) VH: QVQLVQSGAEVKKPGASVKVSCKASGFNIKDYYMHWVRQAPGQRLEWIGWIDLENANAVYDAKFQGRVTITRDTSASTAYMELSSLRSEDTAVYYCARDAYGRYFYDVWGQGTLVTVSS VL: DIVMTQSPDSLAVSLGGRATINCKSSQSLLNARTGKNYLAWYQQKPGQPPKLLIYWASTRESGVPDRFSGSGSGTDFTLTISSLQAEDVAVYYCVQSYFRRTFGGGTKVEIK
pKd: 10.19

Entry ADI-46363 (antibody, V domains shown, also called Ab47) VH: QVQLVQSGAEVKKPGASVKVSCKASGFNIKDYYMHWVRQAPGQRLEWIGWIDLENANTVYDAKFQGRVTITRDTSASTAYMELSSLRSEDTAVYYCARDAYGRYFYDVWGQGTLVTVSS VL: DIVMTQSPDSLAVSLGERATINCKSSQSLLNARTGKNYLAWYQQKPGQPPKLLIYWASTRESGVPDRFSGSGSGTDFTLTISSLQAEDVAVYYCTQSYFRRTFGGGTKVEIK — recorded pKd = 9.03

Form: binder = ADI-45969 (antibody, V domains shown, also called Ab5) VH: QVQLVQSGAEVKKPGASVKVSCKASGFNIKDYYMHWVRQAPGQRLEWIGWIDLENANTVYDAKFQGRVTITRDTSASTAYMELGSLRSEDTAVYYCARDAYGRYFYDVWGQGTLVTVSS VL: DIVMTQSPDSLAVSLGERATINCKSSQSLLNARTGKNYLAWYQQKPGQPPKLLIYWASTRESGVPDRFSGSGSGTDFTLTISSLQAEDVAVYYCAQSYFRRTFGGGTKVEIK ; pKd = 10.22
